# credit: patent US9302993B2

System: Neuronal cortical cells
Test: Assay for test compound cytoxicity, MTS (Assay 3(d))
Assay type: cell-based, mouse
Conditions: BL6J×129sv, mouse, 4 days, 1 uM
value.kind: Test Compound Cytoxicity 1 uM

Example compounds with recorded Test Compound Cytoxicity 1 uM:
>  <compound>
CSc1ccccc1-c1ccc2cccc(O)c2n1

>  <measurement.target>
Neuronal cortical cells

>  <Test Compound Cytoxicity 1 uM>
100

$$$$
>  <compound>
Cc1cc(C)c2cccnc2c1O

>  <measurement.target>
Neuronal cortical cells

>  <Test Compound Cytoxicity 1 uM>
97

$$$$
>  <compound>
Oc1c(Br)cc(-c2ccccc2)c2cccnc12

>  <measurement.target>
Neuronal cortical cells

>  <Test Compound Cytoxicity 1 uM>
78

$$$$

Test Compound Cytoxicity 1 uM on Neuronal cortical cells for `Nc1ccccc1NC(=O)c1cc(O)c2cccc(O)c2n1` is 85

The reported Test Compound Cytoxicity 1 uM value, Neuronal cortical cells, for `Oc1cccc2ccc(CN(CCc3c[nH]cn3)Cc3c[nH]cn3)nc12` reads 86

The reported Test Compound Cytoxicity 1 uM value, Neuronal cortical cells, for `Cc1ccccc1-c1cc(Cl)c2cccnc2c1O` reads 81

The compound `O=C(NCCc1c[nH]cn1)c1ccc2c(Cl)cc(Cl)c(O)c2n1` , tested on Neuronal cortical cells, showed Test Compound Cytoxicity 1 uM of 93

Measured Test Compound Cytoxicity 1 uM (Neuronal cortical cells), entry `Oc1cccc2ccc(CN(Cc3ccccn3)Cc3c[nH]cn3)nc12` : 89

The observed Test Compound Cytoxicity 1 uM for `Oc1cccc2ccc(-c3ccccn3)nc12` when tested with Neuronal cortical cells stands at 92

The observed Test Compound Cytoxicity 1 uM for `Cc1cnc(NC(=O)c2ccc3cccc(O)c3n2)s1` when tested with Neuronal cortical cells stands at 85

###

We begin with a simple list: items and their reported Cmax.
Assay: Pharmacokinetic profile, IV and oral (Assay 16)
Assay type: in vivo
Conditions: rat, plasma, po, 30 mg/kg, PO 30 mg/Kg, Mean ± SD
Description: Assay 16. Pharmacokinetic Profile […] [formula] […] (b) PBT-1038 • Intravenous infusion of PBT-1038; (0.5 mg/Kg in 7.5% DMSO in Citrate Buffer pH 3.0) was administered over 5 minutes to 2 rats and arterial blood was sampled up to 24 hours. • Oral administration of PBT-1038; (30 mg/Kg as a 0.05% CMC suspension) via administered via oral gavage to 2 rats and arterial blood was sampled up to 24 hours. • Plasma concentrations of PBT-1038 were determined by MS (LOQ 3 nM) […]
Write down the numeric answer in µM and omit the unit.

Record excerpt, results attached:
>  <compound>
Cn1cnc(CCNC(=O)c2ccc3c(Cl)cc(Cl)c(O)c3n2)c1 [compound 1050]

>  <Cmax / µM>
34

$$$$
>  <compound>
CCNCc1ccc2c(Cl)cc(Cl)c(O)c2n1.Cl [compound 1051]

>  <Cmax / µM>
2.34

$$$$

// sample CN(C)Cc1ccc2c(Cl)cc(Cl)c(O)c2n1.Cl [compound 1033] , its Cmax was 1.69

// Cmax value for O=C(NCCc1c[nH]cn1)c1ccc2c(Cl)cc(Cl)c(O)c2n1 [compound 1038] : 63.1

###

Recorded Viable 10 uM, one value per entry.
Tested on: Neuronal cortical cells
Assay: Assay for test compound cytoxicity, MTS (Assay 3(d))
Format: cell-based, mouse
Conditions: BL6J×129sv, mouse, 4 days, 10 uM
Protocol: Media was then replaced with Neurobasal media (Invitrogen Life Technologies) and B27 supplements (Invitrogen Life Technologies). Cultures were maintained at 37° C. in 5% CO2. […] Cell viability is determined using the MTS assay. […] 200 microliter aliquots are measured with a spectrophotometer at 560 nm. […] On completion of the assay, 1/10 volume MTS was added per well of plate (ie 25 ul/250 ul). The plates were incubated at 37 C for 2 hrs, and then absorbance was read at 560 nm.
// return just the number, without any unit appended

>  <compound>
O=S(=O)(O)c1ccc(O)c2ncccc12 [compound 41]

>  <Viable 10 uM>
81.33

$$$$
>  <compound>
O=C(NCCc1c[nH]cn1)c1ccc2cccc(O)c2n1 [compound 948]

>  <Viable 10 uM>
106.66

$$$$
>  <compound>
O=C(O)CNC(=O)c1ccc2cccc(O)c2n1 [compound 956]

>  <Viable 10 uM>
89

$$$$
>  <compound>
Nc1ccccc1NC(=O)c1cc(O)c2cccc(O)c2n1 [compound 986]

>  <Viable 10 uM>
81.73

$$$$
>  <compound>
Oc1c(Br)cc(Br)c2cccnc12 [compound 47]

>  <Viable 10 uM>
93.59

$$$$

Now consider the entry below.
GET /value?item= O/N=C/c1ccc2cccc(O)c2n1 [compound 969] &field=Viable 10 uM returns 94.55

###

Assay: Pharmacokinetic profile, IV and oral (Assay 16)
Assay type: in vivo
Conditions: rat, IV, individual rats; listed as PBT 1051, hydrochloride
value.kind: Cmax

Form field Cmax, entry CCNCc1ccc2c(Cl)cc(Cl)c(O)c2n1.Cl [compound 1051, hydrochloride] : 3.03 µM

###

Test: Pharmacokinetic profile, IV and oral (Assay 16)
Assay type: in vivo
Details: rat, plasma, iv, individual rats
value.kind: Cmax (nM)
Number in nM, nothing else.

For CCNCc1ccc2c(Cl)cc(Cl)c(O)c2n1.Cl [compound 1051] the compound record lists Cmax as 2960

###

Experiment: Pharmacokinetic profile, IV and oral (Assay 16)
Type: in vivo
Conditions: rat, plasma, iv, Mean ± SD
value.kind: Cmax
Answer format: number, then unit.

>  <molecule>
CCNCc1ccc2c(Cl)cc(Cl)c(O)c2n1.Cl [compound 1051]

>  <result>
2.99 µM

$$$$

Alright, here's another molecule for you.
The reported value for O=C(NCCc1c[nH]cn1)c1ccc2c(Cl)cc(Cl)c(O)c2n1 [compound 1038] in terms of Cmax is 5.45 µM

###

Tested on: Neuronal cortical cells
Test: Assay for test compound cytoxicity, MTS (Assay 3(d))
Type: cell-based, mouse
Conditions: BL6J×129sv, mouse, 4 days, 1 uM
value.kind: Test Compound Cytoxicity 1 uM
Reply with the value as a number alone.

Completed entries (count: 3):
>  <smiles.code>
Oc1c(Cl)cc(-c2cccnc2)c2cccnc12

>  <value.kind>
Test Compound Cytoxicity 1 uM

>  <numeric.result>
101.84

$$$$
>  <smiles.code>
NCc1ccc2cccc(O)c2n1

>  <value.kind>
Test Compound Cytoxicity 1 uM

>  <numeric.result>
87

$$$$
>  <smiles.code>
NC(=O)c1ccc2c(Cl)cc(Cl)c(O)c2n1

>  <value.kind>
Test Compound Cytoxicity 1 uM

>  <numeric.result>
88

$$$$

Noted for `Oc1ccccc1-c1cc(Cl)c2cccnc2c1O` : its Test Compound Cytoxicity 1 uM reads 94

Quick note, Test Compound Cytoxicity 1 uM for `CN(C)Cc1ccc2c(Cl)cc(Cl)c(O)c2n1.Cl` landed at 80

Quick note, Test Compound Cytoxicity 1 uM for `Oc1c(Br)cc(Br)c2cccnc12` landed at 88

###

Biological target: hydrogen peroxide generation by Aβ in the presence of copper (Homo sapiens, UniProt P05067)
Construct: The reaction solutions contained Aβ 1-42 at concentrations in the range of 50 nM to 1 μM
Sequence (P05067 672-713 limits assumed): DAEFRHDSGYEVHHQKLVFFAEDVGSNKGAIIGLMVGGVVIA
Assay: Fluorometric H2O2 assay (Assay 1)
Assay type: biochemical
Settings: Aβ 1-42 with Cu-Gly, DCF/HRP, 37 C 60 min; several values in one cell = repeat determinations; read-out: Peroxide IC50
value.kind: pIC50
pIC50 (log units): -log10 of the concentration in mol/L.

>  <compound>
Oc1c(-c2ccccc2C(F)(F)F)cc(-c2ccccc2C(F)(F)F)c2cccnc12

>  <numeric.result>
6.22

$$$$
>  <compound>
O=C(NCCc1ccccn1)c1ccc2cccc(O)c2n1

>  <numeric.result>
6.60

$$$$
>  <compound>
CC(=O)Nc1ccc(O)c2ncccc12

>  <numeric.result>
6.49

$$$$
>  <compound>
Oc1c(Cl)cc(Cl)c2cc(Cl)cnc12 [compound 1058, 3,5,7-trichloro-8-hydroxyquinoline]

>  <numeric.result>
6.17

$$$$
>  <compound>
Oc1cccc2cc3ccccc3nc12

>  <numeric.result>
6.19

$$$$

// recorded pIC50 for `Oc1ccc(/C=C/c2ccc3cccc(O)c3n2)cc1` : 5.52

compound `Oc1c(Cl)cc(Cl)c2cccnc12` , pIC50 observed: 6.15

Reported pIC50 of `Oc1ccc(Cl)c2cccnc12` : 6.10

For reference, reported pIC50 for `Oc1c(-c2cc3ccccc3s2)cc(Cl)c2cccnc12` stands at 5.17

Reported pIC50 for `Oc1cccc2ccc(CN(CCc3c[nH]cn3)Cc3c[nH]cn3)nc12` was 6.59

###

Biological target: hydrogen peroxide generation by Aβ in the presence of copper (Homo sapiens)
Construct: The reaction solutions contained Aβ 1-42 at concentrations in the range of 50 nM to 1 μM
Assay: Fluorometric H2O2 assay (Assay 1)
Assay type: biochemical
Settings: Aβ 1-42 with Cu-Gly, DCF/HRP, 37 C 60 min; several values in one cell = repeat determinations; read-out: Peroxide IC50
pIC50: −log10 of the molar value.
value.kind: pIC50

Quick note, pIC50 for CC(C)Oc1c(I)cc(-c2ccc(C(F)(F)F)cc2)c2cccnc12 [compound 823] landed at < 5.00

compound Cc1nccn1-c1ccc2cccc(O)c2n1 [compound 993] , pIC50 observed: < 5.00

// recorded pIC50 for Cc1ccccc1-c1cc(I)c(O)c2ncccc12 [compound 861] : 6.04

Notebook: COc1cccc(-c2cc(Cl)c3cccnc3c2OC(C)C)c1 [compound 801] , pIC50 read as < 5.00

response.value for O=C(Nc1nccs1)c1ccc2cccc(O)c2n1 [compound 952] (field: pIC50) = > 6.09
